// provenance: patent US20260256738A1

Measured CYP450 Panel 3A4 (midazolam) of individual entries
molecular target: CYP450 3A4 (Homo sapiens, UniProt P08684); test: CYP450 Panel; assay type: in vitro ADME; conditions: 10 μM; substrate midazolam
Sequence (P08684 whole entry): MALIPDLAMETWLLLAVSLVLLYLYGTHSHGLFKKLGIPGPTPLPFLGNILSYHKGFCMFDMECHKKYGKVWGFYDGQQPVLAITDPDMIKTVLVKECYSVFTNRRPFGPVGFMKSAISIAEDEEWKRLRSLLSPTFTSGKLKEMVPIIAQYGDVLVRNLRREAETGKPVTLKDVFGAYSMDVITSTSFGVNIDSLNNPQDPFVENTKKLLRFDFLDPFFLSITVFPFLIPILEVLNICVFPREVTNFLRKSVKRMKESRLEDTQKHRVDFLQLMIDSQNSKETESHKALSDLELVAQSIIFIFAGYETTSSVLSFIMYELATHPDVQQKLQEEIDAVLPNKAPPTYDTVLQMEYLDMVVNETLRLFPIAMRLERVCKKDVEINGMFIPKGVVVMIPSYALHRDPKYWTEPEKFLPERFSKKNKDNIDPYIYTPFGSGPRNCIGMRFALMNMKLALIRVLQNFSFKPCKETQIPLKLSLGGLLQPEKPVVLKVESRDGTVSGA

{"Compound": "CNS(=O)(=O)Nc1cccc(Cc2c(CN(C)C)c3ccc(OC(=O)N(C)C)cc3oc2=O)c1F", "Target": "CYP450 3A4 (Homo sapiens, UniProt P08684)", "CYP450 Panel 3A4 (midazolam) [%]": 16.3}
{"Compound": "Cn1cnc2c(F)c(Nc3ccc(Br)cc3Cl)c(C(=O)NOCCO)cc21 [Reference 1, Selumetinib]", "Target": "CYP450 3A4 (Homo sapiens, UniProt P08684)", "CYP450 Panel 3A4 (midazolam) [%]": 25.9}
{"Compound": "CNS(=O)(=O)Nc1nccc(Cc2c(C)c3ccc(Oc4ncccn4)cc3oc2=O)c1F [Reference 2]", "Target": "CYP450 3A4 (Homo sapiens, UniProt P08684)", "CYP450 Panel 3A4 (midazolam) [%]": 16.6}
{"Compound": "CNS(=O)(=O)Nc1cccc(Cc2c(C)c3ccc(OC(=O)N(C)C)cc3oc2=O)c1F [Reference 7]", "Target": "CYP450 3A4 (Homo sapiens, UniProt P08684)", "CYP450 Panel 3A4 (midazolam) [%]": 29.9}

----------
target: CYP450 2C9 (Homo sapiens, UniProt P11712); assay: CYP450 Panel; assay type: in vitro ADME; details: 10 μM; substrate Diclofenac; in % (unit assumed)
Sequence (P11712 whole entry): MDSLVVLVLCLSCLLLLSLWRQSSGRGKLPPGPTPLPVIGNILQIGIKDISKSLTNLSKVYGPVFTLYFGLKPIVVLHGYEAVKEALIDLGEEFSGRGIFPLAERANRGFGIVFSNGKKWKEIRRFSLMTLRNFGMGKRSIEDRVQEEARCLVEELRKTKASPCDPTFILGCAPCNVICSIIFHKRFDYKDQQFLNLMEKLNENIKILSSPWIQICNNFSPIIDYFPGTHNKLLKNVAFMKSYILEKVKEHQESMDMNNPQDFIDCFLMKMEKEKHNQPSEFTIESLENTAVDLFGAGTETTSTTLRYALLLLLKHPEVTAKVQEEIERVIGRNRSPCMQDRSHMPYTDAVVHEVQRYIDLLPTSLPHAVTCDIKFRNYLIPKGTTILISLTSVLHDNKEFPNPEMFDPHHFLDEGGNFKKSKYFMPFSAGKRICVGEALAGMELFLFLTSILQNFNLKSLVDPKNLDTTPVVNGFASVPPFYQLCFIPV

{"Compound": "CNS(=O)(=O)Nc1cccc(Cc2c(C)c3ccc(OC(=O)N(C)C)cc3oc2=O)c1F [Reference 7]", "CYP450 Panel 2C9": 33.8}
{"Compound": "Nc1ccc(S(=O)(=O)Nc2ccnn2-c2ccccc2)cc1 [Sulfaphenazole]", "CYP450 Panel 2C9": 101.2}
{"Compound": "Cn1cnc2c(F)c(Nc3ccc(Br)cc3Cl)c(C(=O)NOCCO)cc21 [Reference 1, Selumetinib]", "CYP450 Panel 2C9": 14.1}
{"Compound": "CNS(=O)(=O)Nc1cccc(Cc2c(CN(C)C)c3ccc(OC(=O)N(C)C)cc3oc2=O)c1F [Compound A]", "CYP450 Panel 2C9": 6.8}

----------
assay: Single dose PK profile in Colon-26 tumor bearing mice; type: in vivo; conditions: female, mouse, iv, 25 mg/kg; plasma; 25 mpk i.v.; 2nd of two values in cell; read-out: Cmax

{"Chem Smiles": "CNS(=O)(=O)Nc1cccc(Cc2c(CN(C)C)c3ccc(OC(=O)N(C)C)cc3oc2=O)c1F", "Cmax, ng/mL": 10900}

----------
experiment: Single dose PK profile in Colon-26 tumor bearing mice; type: in vivo; settings: female, mouse, po, 25 mg/kg; plasma; 25 mpk p.o.; 2nd of two values in cell

{"Chem Smiles": "CNS(=O)(=O)Nc1cccc(Cc2c(CN(C)C)c3ccc(OC(=O)N(C)C)cc3oc2=O)c1F", "Units Text": "h", "half-life": 1.23}

----------
Measured half-lives per (BID) cycle of individual entries
experiment: Human plasma pharmacokinetics of approved MEK inhibitors; assay type: in vivo; settings: human dosing cycle

{"Compound": "Cn1cnc2c(F)c(Nc3ccc(Br)cc3F)c(C(=O)NOCCO)cc21", "half-lives per (BID) cycle": "≤ 3.4 half-lives"}
{"Compound": "CC(=O)Nc1cccc(-n2c(=O)n(C3CC3)c(=O)c3c(Nc4ccc(I)cc4F)n(C)c(=O)c(C)c32)c1", "half-lives per (BID) cycle": "≤ 0.25 half-lives"}
{"Compound": "Cn1cnc2c(F)c(Nc3ccc(Br)cc3Cl)c(C(=O)NOCCO)cc21 [Reference 1, Selumetinib]", "half-lives per (BID) cycle": "≤ 2.3 half-lives"}
{"Compound": "O=C(c1ccc(F)c(F)c1Nc1ccc(I)cc1F)N1CC(O)([C@@H]2CCCCN2)C1", "half-lives per (BID) cycle": "≤ 0.55 half-lives"}
